# Tested on: COLO 205
# experiment: NCI 60 antitumor screening (single dose / five doses)
# Type: cell-based
# condition_parameters: Homo sapiens; COLO 205 (colon cancer), single dose 10 μM; read-out: Growth inhibition percentage (GI %)
measurement_label: inhibition at 10 µM (%)
Answers are plain numbers, in %.

chemical_string=Fc1cccc(Cl)c1/C=N/Nc1nc(N/N=C/c2c(F)cccc2Cl)nc(N2CCOCC2)n1 assay_result=29.6

// each listed compound needs a value for inhibition at 10 µM
1. Clc1cccc(/C=N/Nc2nc(N/N=C/c3cccc(Cl)c3)nc(N3CCOCC3)n2)c1
2. Clc1cccc(/C=N/Nc2nc(N/N=C/c3cccc(Cl)c3Cl)nc(N3CCCCC3)n2)c1Cl
3. Fc1cccc(Cl)c1/C=N/Nc1nc(N/N=C/c2c(F)cccc2Cl)nc(N2CCCCC2)n1
4. O=C1Nc2ccc(Cl)cc2/C1=N\Nc1nc(N/N=C2/C(=O)Nc3ccc(Cl)cc32)nc(N2CCOCC2)n1
5. Oc1ccc(/C=N/Nc2nc(N/N=C/c3ccc(O)c(O)c3)nc(N3CCOCC3)n2)cc1O

63.1
9.72
117
51.3
-7.11

// fetch inhibition at 10 µM given entry Oc1ccccc1/C=N/Nc1nc(N/N=C/c2ccccc2O)nc(N2CCOCC2)n1
52
